molecular target: S275W HSC70-NBD (Homo sapiens, UniProt P11142, S275W); construct: WT HSPA8 (HSC70) residues 1 to 381; GST (N, cleaved yes); assay: SPR binding to S275W HSC70-NBD mutant; conditions: single measurement
Sequence (P11142 1-381 S275W): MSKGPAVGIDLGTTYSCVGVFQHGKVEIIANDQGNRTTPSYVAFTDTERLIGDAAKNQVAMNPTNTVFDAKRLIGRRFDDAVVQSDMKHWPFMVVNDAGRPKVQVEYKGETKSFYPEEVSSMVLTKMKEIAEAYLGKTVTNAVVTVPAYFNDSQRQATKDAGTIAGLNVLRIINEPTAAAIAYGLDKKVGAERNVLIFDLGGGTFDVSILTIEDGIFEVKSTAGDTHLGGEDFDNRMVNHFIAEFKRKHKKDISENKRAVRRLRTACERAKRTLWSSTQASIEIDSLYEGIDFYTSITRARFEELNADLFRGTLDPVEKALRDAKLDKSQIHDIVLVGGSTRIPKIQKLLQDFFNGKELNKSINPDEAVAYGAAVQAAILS
pKd: −log10 of the molar value.
compounds and their reported pKd

COMPOUND: N#Cc1ccc(COC[C@H]2C[C@@H](Nc3ncnc4cccc(OCc5ccccc5)c34)[C@H](O)[C@@H]2O)cc1 [Compound 29]
pKd: 2.70
//
COMPOUND: OC[C@H]1C[C@@H](Nc2ncnc3cccc(OCc4ccc(Cl)c(Cl)c4)c23)[C@H](O)[C@@H]1O [Compound 27]
pKd: 2.30

###

Quick reference: Kd of the listed items.
target: WT HSC70-NBD (Homo sapiens, UniProt P11142); construct: WT HSPA8 (HSC70) residues 1 to 381; GST (N, cleaved yes); made in house; host or cells: E. coli BL21-AI (expressed as described for FL-HSP72); assay: SPR binding to wild-type HSC70-NBD; settings: SPR, 25 °C; mean ± standard deviation or standard error; triplicate unless marked duplicate/single
Sequence (P11142 1-381): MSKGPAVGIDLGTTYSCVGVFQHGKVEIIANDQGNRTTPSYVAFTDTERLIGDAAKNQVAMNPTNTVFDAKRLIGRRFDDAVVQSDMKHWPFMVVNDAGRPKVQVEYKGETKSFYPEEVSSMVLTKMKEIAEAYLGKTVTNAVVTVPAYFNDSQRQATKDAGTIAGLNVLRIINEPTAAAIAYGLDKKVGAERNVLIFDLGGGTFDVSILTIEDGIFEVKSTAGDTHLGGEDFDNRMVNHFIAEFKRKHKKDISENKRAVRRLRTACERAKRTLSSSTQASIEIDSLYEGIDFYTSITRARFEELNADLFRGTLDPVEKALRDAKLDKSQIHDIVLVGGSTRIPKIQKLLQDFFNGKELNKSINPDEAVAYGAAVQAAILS

COMPOUND: O=c1[nH]cnc2c1oc1ccccc12 [Compound 7]
TGT: WT HSC70-NBD (Homo sapiens, UniProt P11142)
Kd: 1700 µM

COMPOUND: COc1cccc2c(N)ncnc12 [Compound 18]
TGT: WT HSC70-NBD (Homo sapiens, UniProt P11142)
Kd: 2000 µM

COMPOUND: Nc1ncnc2ccccc12 [Compound 10]
TGT: WT HSC70-NBD (Homo sapiens, UniProt P11142)
Kd: 2100 µM

COMPOUND: COc1ccc2c(N)ncnc2c1 [Compound 17]
TGT: WT HSC70-NBD (Homo sapiens, UniProt P11142)
Kd: 850 µM

COMPOUND: N#Cc1ccc(COC[C@H]2C[C@@H](Nc3ncnc4cccc(OCc5ccccc5)c34)[C@H](O)[C@@H]2O)cc1 [Compound 29]
TGT: WT HSC70-NBD (Homo sapiens, UniProt P11142)
Kd: 2000 µM

COMPOUND: COc1cc2ncnc(N[C@@H]3C[C@H](CO)[C@@H](O)[C@H]3O)c2cc1OC [Compound 24]
TGT: WT HSC70-NBD (Homo sapiens, UniProt P11142)
Kd: 250 µM

###

target: S275W HSC70-NBD (Homo sapiens, UniProt P11142, S275W); construct: WT HSPA8 (HSC70) residues 1 to 381; GST (N, cleaved yes); made in house; host or cells: E. coli BL21-AI (expressed as described for FL-HSP72); experiment: SPR binding to S275W HSC70-NBD mutant
RECORDED ENDPOINT: binding to S275W HSC70-NBD mutant (in words)

COMPOUND: Nc1ncnc2c1ncn2[C@@H]1O[C@H](CO)[C@@H](O)[C@H]1O [Adenosine, adenosine, reference compound]
RECORDED VALUE: abolished binding
//
COMPOUND: N#Cc1ccc(COC[C@H]2O[C@@H](n3c(NCc4ccc(Cl)c(Cl)c4)nc4c(N)ncnc43)[C@H](O)[C@@H]2O)cc1
RECORDED VALUE: abolished binding
//
COMPOUND: Nc1ncnc2c1ncn2[C@@H]1O[C@H](COP(=O)(O)OP(=O)(O)O)[C@@H](O)[C@H]1O [ADP, reference compound]
RECORDED VALUE: abolished binding
